System: A. baumannii strain 98-37-09
assay_name: Cellular accumulation of minocycline (HPLC, triple-quadrupole MS)
Assay type: cell-based, Acinetobacter baumannii
setup_conditions: human serum with 0.5 μg mL^−1 minocycline plus test compound (0.5×MEC, 1×MEC), 48 hours
property_label: Minocylcine Per Cell (femtomoles cell^−1)

>>> readout_number("Oc1ccccc1/C=N/c1nccs1 [ST009531]")
"5.88E−09"
>>> readout_number("NS(=O)(=O)c1ccc(/N=C/c2ccc(Cl)cc2)cc1 [ST009675]")
"5.88E−04"
>>> readout_number("O=C(N/N=C/c1cccs1)c1ccncc1 [ST010260]")
"3.27E−08"
>>> readout_number("CCOC(=O)C1=C(CN2CCCCC2)NC(=O)NC1c1ccc2c(c1)OCO2 (centres unmarked) [ST058478]")
"1.52E−07"
>>> readout_number("N#CC1=C(N)OC2=C(C(=O)CCC2)C1c1c(Cl)cccc1Cl (centres unmarked) [ST009850]")
"7.25E−08"
>>> readout_number("O=[N+]([O-])c1cc2c(cc1/C=N/c1ccc(S(=O)(=O)Nc3nccs3)cc1)OCO2 [ST012902]")
"1.1E−05"
>>> readout_number("COc1ccc(C=O)cc1Cn1nnc2ccccc21 [ST033235]")
"6.652E−08"
>>> readout_number("Cc1ccc(/C=N/c2ccc(S(N)(=O)=O)cc2)cc1 [ST009696]")
"8.2E−09"
>>> readout_number("C/C(Cn1nnc([N+](=O)[O-])n1)=N\\NC(=O)CC#N [ST025773]")
"1.04E−07"
>>> readout_number("Nc1nnc(SCC(=O)N2CCCC2)s1 [ST059421]")
"1.27E−07"
>>> readout_number("COc1ccc(OC)c(/C=N/c2ccc(S(N)(=O)=O)cc2)c1 [ST016443]")
"4.4E−04"
>>> readout_number("CCCCOc1ccc(C(=O)NCCC2=CCCCC2)cc1 [ST060056]")
"4.22E−08"
>>> readout_number("N#CC1=C(N)n2c(s/c(=C\\c3ccccc3Cl)c2=O)=C(C#N)C1c1ccccc1Cl (centres unmarked) [ST006953]")
"4.31E−08"
>>> readout_number("Cc1cc2c(c(=O)o1)C(c1ccc(F)cc1)C(C#N)=C(N)O2 (centres unmarked) [ST007013]")
"5E−04"
>>> readout_number("O=C(c1ccc(Cl)cc1Cl)n1cc([N+](=O)[O-])cn1 [ST033231]")
"3.42E−06"
>>> readout_number("C/C(=N\\c1ccc(S(=O)(=O)Nc2nccs2)cc1)c1ccc(O)cc1O [ST012963]")
"3.23E−08"
>>> readout_number("CC(=O)NS(=O)(=O)c1ccc(N)cc1 [ST040724]")
"1.45E−04"
>>> readout_number("Cc1cccc(N(CC(=O)NC23CC4CC(CC(C4)C2)C3)S(=O)(=O)c2ccccc2)c1 [ST034012]")
"1.55E−07"
>>> readout_number("COc1ccc(-c2c3c([nH]c(=O)c2C#N)CCCCC3)cc1 [ST060355]")
"1.23E−08"
>>> readout_number("CCCCCCCN1C(=O)/C(=c2\\sc3n(c2=O)C(c2ccc(OC(=O)c4ccco4)cc2)C(C(=O)OC)=C(C)N=3)c2ccccc21 (centres unmarked) [ST029434]")
"1.73E−08"
>>> readout_number("COc1ccc(C2N(Cc3ccccc3)CCN2Cc2ccccc2)cc1 [ST036291]")
"5.5E−05"
>>> readout_number("Cc1nnc(SCC2=C(C(=O)[O-])N3C(=O)[C@@H](NC(=O)Cn4cnnn4)[C@H]3SC2)s1.[Na+] [ST024775]")
"1.72E−05"
>>> readout_number("CCOC(=O)/C=C/C(=O)Nc1ccc(S(N)(=O)=O)cc1 [ST026465]")
"3.82E−04"
>>> readout_number("O=S(=O)(Nc1nccs1)c1ccc(/N=C/c2c(O)ccc3ccccc23)cc1 [ST012934]")
"2.28E−08"
>>> readout_number("CC1CCN(Cc2cc(Cl)c3cccnc3c2O)CC1 [ST007924]")
"5.12E−05"
>>> readout_number("COc1cc(C(=O)Nc2ccccc2C(=O)NCC2CCCO2)cc(OC)c1OC (centres unmarked) [ST060053]")
"1.78E−04"
>>> readout_number("CC(C)(C)NC(=O)CSc1nnnn1C(C)(C)C [ST060273]")
"6.84E−06"
>>> readout_number("CCOc1ccccc1C(=O)Nc1sc2c(c1C(=O)OC(C)C)CCCC2 [ST009896]")
"3.99E−05"
>>> readout_number("N#Cc1c(/N=C/c2ccc([N+](=O)[O-])o2)sc2c1CCCC2 [ST033065]")
"2.06E−05"
>>> readout_number("CCOC(=O)/C=C/C(=O)Nc1ccc(S(=O)(=O)Nc2nccs2)cc1 [ST026450]")
"2.35E−06"
>>> readout_number("CCN(CC)S(=O)(=O)c1ccc(NC(=O)C2CC(=O)N(c3ccc(OC)cc3)C2)cc1 (centres unmarked) [ST059822]")
"1.36E−07"
>>> readout_number("NS(=O)(=O)c1ccc(/N=C/c2ccc(Br)cc2)cc1 [ST009699]")
"1.15E−04"
>>> readout_number("NNC(=O)CSCc1ccc(Cl)cc1 [ST020992]")
"1.53E−07"
>>> readout_number("Nc1ccc(S(=O)(=O)Nc2ncccn2)cc1 [ST059447]")
"4.52E−05"
>>> readout_number("COc1ccc(O)c(/C=N/N=C/c2cc(OC)ccc2O)c1 [ST020959]")
"1.27E−04"
